Assay: Pharmacokinetic assessment of X842 in rats (IV, single oral, repeated oral)
Assay type: in vivo, Sprague-Dawley rats
Conditions: male, Sprague-Dawley, rat, plasma, po, male rats, single-dose oral administration; read-out: t1/2 (range over doses)
Endpoint Name: half-life

>>> print(df.to_string())
                                   molecule      result
0  Cc1cccc(C)c1CNc1cc(C(=O)NCCOC(=O)CCCC(=O)O)cn2c(C)c(C)nc12 [X842, linaprazan glurate]  2 to 2.7 h

* * *

The entries below are paired with their reported half-life.
Experiment: Pharmacokinetic assessment of X842 in rats (IV, single oral, repeated oral)
Assay type: in vivo, Sprague-Dawley rats
Conditions: female, Sprague-Dawley, rat, plasma, po, 2.4 mg/kg, female rats, single oral X842 2.4 mg/kg; analyte as labelled; read-out: t1/2 (converted)
Endpoint Name: half-life

>>> print(df.to_string())
                                   compound  result
0  Cc1cccc(C)c1CNc1cc(C(=O)NCCOC(=O)CCCC(=O)O)cn2c(C)c(C)nc12 [X842, linaprazan glurate]   4.1 h
1  Cc1cccc(C)c1CNc1cc(C(=O)NCCO)cn2c(C)c(C)nc12 [linaprazan]   2.7 h

* * *

Test: Pharmacokinetic assessment of X842 in dogs (IV, single oral, repeated oral)
Type: in vivo
Conditions: female, beagle, dog, plasma, iv, 0.3 mg/kg, female dogs, intravenous X842 0.3 mg/kg; analyte as labelled; read-out: AUC(0-24h)
Experimental: Pharmacokinetic assessments were conducted by Shanghai Medicilon Inc. Using C18 solid-phase extraction (Shimadzu UFLC-20A, ACE 3, C18, 3.0 µm, 150 × 4.6 mm; Shimadzu, Japan) with the following conditions: mobile phase A: 1 M ammonium acetate in water, mobile phase B: 100% acetonitrile; gradient 0–5 min: 100% A, 5–30 min: 85% A, 35–63 min: 75% A, 63–65 min: 55% A, 65–70 min: 0% A, 72–87 min: 100% A; flow rate 0.7 mL/min; column temperature 30 °C ([Weidof and Covey, 1992]). […]
Endpoint Name: AUC(0-t) (ng·h/mL)

>>> print(df.to_string())
                                   compound  endpoint_name  units_text  numeric_value
0  Cc1cccc(C)c1CNc1cc(C(=O)NCCO)cn2c(C)c(C)nc12       AUC(0-t)     ng·h/mL            106
1  Cc1cccc(C)c1CNc1cc(C(=O)NCCOC(=O)CCCC(=O)O)cn2c(C)c(C)nc12 [X842, linaprazan glurate]       AUC(0-t)     ng·h/mL            343

* * *

Test: Pharmacokinetic assessment of X842 in dogs (IV, single oral, repeated oral)
Type: in vivo
Conditions: female, beagle, dog, plasma, po, 0.3 mg/kg, female dogs, single oral X842 0.3 mg/kg; analyte as labelled; read-out: AUC(0-24h)
Endpoint Name: AUC(0-t)

                                   molecule  endpoint_name        result
0  Cc1cccc(C)c1CNc1cc(C(=O)NCCO)cn2c(C)c(C)nc12 [linaprazan]       AUC(0-t)  48.7 ng·h/mL
1  Cc1cccc(C)c1CNc1cc(C(=O)NCCOC(=O)CCCC(=O)O)cn2c(C)c(C)nc12 [X842, linaprazan glurate]       AUC(0-t)   5.1 ng·h/mL

* * *

The entries below are paired with their reported AUC(0-t).
Experiment: Pharmacokinetic assessment of X842 in rats (IV, single oral, repeated oral)
Type: in vivo, Sprague-Dawley rats
Conditions: male, Sprague-Dawley, rat, plasma, iv, 0.6 mg/kg, male rats, intravenous X842; plasma analyte as labelled; read-out: AUC(0–24h)
Endpoint Name: AUC(0-t) (ng·h/mL)

>>> print(df.to_string())
                                   molecule  units_text  numeric_value
0  Cc1cccc(C)c1CNc1cc(C(=O)NCCOC(=O)CCCC(=O)O)cn2c(C)c(C)nc12 [X842, linaprazan glurate]     ng·h/mL            146
1  Cc1cccc(C)c1CNc1cc(C(=O)NCCO)cn2c(C)c(C)nc12 [linaprazan]     ng·h/mL            114

* * *

Experiment: Pharmacokinetic assessment of X842 in dogs (IV, single oral, repeated oral)
Format: in vivo
Settings: beagle, dog, plasma; male dogs, intravenous X842 0.3 mg/kg; analyte as labelled; read-out: t1/2 (converted)
The entries below are paired with their reported half-life.
Endpoint Name: half-life (h)

                                   compound  endpoint_name  numeric_value
0  Cc1cccc(C)c1CNc1cc(C(=O)NCCOC(=O)CCCC(=O)O)cn2c(C)c(C)nc12 [X842, linaprazan glurate]      half-life            0.5
1  Cc1cccc(C)c1CNc1cc(C(=O)NCCO)cn2c(C)c(C)nc12      half-life            1.5

* * *

Assay: Pharmacokinetic assessment of X842 in dogs (IV, single oral, repeated oral)
Assay type: in vivo
Settings: beagle, dog, plasma, 1.2 mg/kg; male dogs, 7 days of repeat oral X842, Day 7; analyte as labelled; read-out: t1/2 Day 7 (converted)
Endpoint Name: half-life at 7 day

In [3]: df
Out[3]:
                                   compound   result
0  Cc1cccc(C)c1CNc1cc(C(=O)NCCOC(=O)CCCC(=O)O)cn2c(C)c(C)nc12 [X842, linaprazan glurate]  516 min
1  Cc1cccc(C)c1CNc1cc(C(=O)NCCO)cn2c(C)c(C)nc12  228 min

* * *

Biological target: Gastric H+/K+-ATPase (Oryctolagus cuniculus, UniProt P27112)
Construct: Gastric H^+/K^+-ATPase was prepared from rabbit glands; from tissue; host or cells: rabbit gastric glands
Sequence (P27112 whole entry): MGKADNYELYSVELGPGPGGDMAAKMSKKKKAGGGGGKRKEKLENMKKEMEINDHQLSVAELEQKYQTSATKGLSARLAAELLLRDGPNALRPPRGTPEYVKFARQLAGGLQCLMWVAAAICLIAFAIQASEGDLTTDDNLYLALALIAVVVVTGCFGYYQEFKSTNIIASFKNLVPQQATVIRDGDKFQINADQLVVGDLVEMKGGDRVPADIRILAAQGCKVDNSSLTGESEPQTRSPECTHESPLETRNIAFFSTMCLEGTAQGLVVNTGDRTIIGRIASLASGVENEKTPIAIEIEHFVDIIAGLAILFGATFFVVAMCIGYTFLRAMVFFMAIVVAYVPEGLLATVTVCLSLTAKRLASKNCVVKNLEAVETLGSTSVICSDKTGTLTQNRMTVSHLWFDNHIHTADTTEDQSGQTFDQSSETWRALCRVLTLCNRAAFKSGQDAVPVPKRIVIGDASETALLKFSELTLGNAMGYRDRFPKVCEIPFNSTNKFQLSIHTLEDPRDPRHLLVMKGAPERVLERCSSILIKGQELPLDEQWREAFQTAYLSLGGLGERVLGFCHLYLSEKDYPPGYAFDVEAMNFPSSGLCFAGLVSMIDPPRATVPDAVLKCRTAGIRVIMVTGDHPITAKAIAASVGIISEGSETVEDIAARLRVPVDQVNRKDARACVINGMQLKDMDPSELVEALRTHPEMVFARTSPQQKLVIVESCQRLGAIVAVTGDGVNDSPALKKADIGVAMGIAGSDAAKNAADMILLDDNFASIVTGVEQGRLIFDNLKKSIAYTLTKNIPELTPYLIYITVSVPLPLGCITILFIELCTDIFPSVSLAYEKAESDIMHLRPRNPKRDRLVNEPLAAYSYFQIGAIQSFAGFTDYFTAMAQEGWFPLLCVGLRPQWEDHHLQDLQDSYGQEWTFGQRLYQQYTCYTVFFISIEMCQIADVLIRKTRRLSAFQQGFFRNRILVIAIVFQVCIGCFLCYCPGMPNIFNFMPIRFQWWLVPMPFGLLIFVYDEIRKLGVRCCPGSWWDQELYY
Sequence (P18597 whole entry partner): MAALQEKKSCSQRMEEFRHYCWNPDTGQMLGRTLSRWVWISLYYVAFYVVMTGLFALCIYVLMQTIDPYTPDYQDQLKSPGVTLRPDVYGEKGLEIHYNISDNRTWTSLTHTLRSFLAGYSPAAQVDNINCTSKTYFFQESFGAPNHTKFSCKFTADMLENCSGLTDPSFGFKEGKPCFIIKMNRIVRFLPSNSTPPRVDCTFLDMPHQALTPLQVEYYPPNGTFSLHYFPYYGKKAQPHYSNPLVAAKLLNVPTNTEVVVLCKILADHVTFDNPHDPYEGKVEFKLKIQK
Test: Inhibition of H+/K+-ATPase activity (Malachite Green Pi assay)
Format: biochemical, rabbit
Details: in the presence of potassium ions, rabbit gastric glands; read-out: IC50 (Figure 7A)
Protocol: The H^+/K^+-ATPase inhibition reaction was performed in buffer (50 mM Tris-HCl, 5 mM magnesium chloride, 10 μM valinomycin, pH 6.5) with or without 20 mM potassium chloride (KCl), and inorganic phosphate (Pi) was detected using Malachite Green solution, made from 0.1% malachite green, 1.5% hexaammonium molybdate, and 0.2% Tween-20 in a ratio of 100:25:2 ([Skou, 1982]; [Feng et al., 2011]). […] Absorbance was measured at 620 nm using a plate reader (SpectraMax M5). […]
Endpoint Name: IC50 (nM)

In [3]: df
Out[3]:
                                   compound                                 tested_on  numeric_value
0  CNCc1cc(-c2ccccc2F)n(S(=O)(=O)c2cccnc2)c1 [vonoprazan]  Gastric H+/K+-ATPase (Oryctolagus cuniculus, UniProt P27112)           17.1
1  Cc1cccc(C)c1CNc1cc(C(=O)NCCO)cn2c(C)c(C)nc12 [linaprazan]  Gastric H+/K+-ATPase (Oryctolagus cuniculus, UniProt P27112)           40.2
2  Cc1cccc(C)c1CNc1cc(C(=O)NCCOC(=O)CCCC(=O)O)cn2c(C)c(C)nc12 [X842, linaprazan glurate]  Gastric H+/K+-ATPase (Oryctolagus cuniculus, UniProt P27112)            436

* * *

Assay: Pharmacokinetic assessment of X842 in dogs (IV, single oral, repeated oral)
Format: in vivo
Conditions: beagle, dog, plasma; female dogs, single oral dose; read-out: t1/2 (range over doses)
Endpoint Name: half-life

>>> df
                                   molecule        result
0  Cc1cccc(C)c1CNc1cc(C(=O)NCCOC(=O)CCCC(=O)O)cn2c(C)c(C)nc12 [X842, linaprazan glurate]  2.1 to 3.2 h

* * *

Assay: Pharmacokinetic assessment of X842 in dogs (IV, single oral, repeated oral)
Assay type: in vivo
Conditions: beagle, dog, plasma; male dogs, single oral X842 0.3 mg/kg; analyte as labelled; read-out: t1/2 (converted)
Endpoint Name: half-life (h)

                                   molecule  endpoint_name  numeric_value
0  Cc1cccc(C)c1CNc1cc(C(=O)NCCO)cn2c(C)c(C)nc12 [linaprazan]      half-life            2.2

* * *

Assay: Pharmacokinetic assessment of X842 in rats (IV, single oral, repeated oral)
Type: in vivo, Sprague-Dawley rats
Settings: male, Sprague-Dawley, rat, plasma, po, 2.4 mg/kg, male rats, single oral X842, 2.4 mg/kg (third dose group); read-out: AUC(0–24h)
Endpoint Name: AUC(0-t) (ng·h/mL)

In [3]: df
Out[3]:
                                   compound  numeric_value
0  Cc1cccc(C)c1CNc1cc(C(=O)NCCOC(=O)CCCC(=O)O)cn2c(C)c(C)nc12 [X842, linaprazan glurate]           11.6
